- Tested on: human APOE RNA
- assay.text: Dose-dependent inhibition of human APOE RNA in HepG2 cells, electroporation, 50,000 cells per well, RT-PCR normalized to GAPDH (Example 4, Tables 8-10)
- Format: cell-based
- condition.set: 3,200 nM; HepG2, electroporation, 16-hour treatment
Strand notation (5' to 3'): a small letter for the sugar, then the base; units joined by * are phosphorothioate-linked, units joined directly phosphodiester-linked; [ ] holds rarer units or linkages, { } end groups; capitals alone tell only the bases. e = 2'-O-(2-methoxyethyl) (MOE); k = constrained ethyl (cEt); [5mC] = 5-methylcytosine; d = 2'-deoxy (DNA)
Reported APOE RNA (% UTC) values are given for each entry in this list.

{"substance": "1757562: mixed MOE/cEt gapmer TTGGTGAATCTTTATTAA, sugar eeeekddddddddkkeee, linkages soossssssssssooss (eT*eTeGeG*kT*dG*dA*dA*dT*d[5mC]*dT*dT*dT*kAkTeT*eA*eA) [compound 1757562]", "APOE RNA (% UTC)": 29}
{"substance": "1757557: mixed MOE/cEt gapmer TTGGTGAATCTTTATTAA, sugar eeeeeddddddddeekke, linkages soossssssssssooss (eT*eTeGeG*eT*dG*dA*dA*dT*d[5mC]*dT*dT*dT*eAeTkT*kA*eA) [compound 1757557]", "APOE RNA (% UTC)": 59}
{"substance": "1757567 (eA*e[5mC]eTeTeG*dG*dT*dG*dA*dA*dT*d[5mC]*dT*dT*dT*kAeTeT*eA*eA; antisense) [Compound 1757567]", "APOE RNA (% UTC)": 37}
